system.tested: HLA-A*26:01
measurement.description: IEDB peptide-MHC binding, purified MHC/direct/fluorescence; filed as Kd, often an IC50 or EC50 that approximates it; bounds were set here for any values at or beyond the usual limits of such assays
condition.parameters: source organism: Pseudomonas putida
property: Kd (µM)
Numbers only, in µM.

Inquiry: Item DLSNSMRDF has what recorded Kd?
Reply text: 4.52

###

system.tested: HLA-A*02:50
measurement.description: IEDB peptide-MHC binding, purified MHC/competitive/fluorescence; filed as Kd, often an IC50 or EC50 that approximates it; bounds were set here for any values at or beyond the usual limits of such assays
condition.parameters: source organism: Escherichia coli
property: Kd
The number alone won't do; follow it with the unit.

Inquiry: Look at this sequence and give its reported Kd. RMYGISPWT
Reply text: 18.4 nM
